// reported CC50 at 5 days for each item listed
Procedure Text: in vitro
Applied Conditions: human, uninfected MT-4 cells, CC50 (nM), same protocol as Test A, CellTiter-Glo

Compound: Cc1[nH]nc(-c2ccccc2)c1CC(=O)N[C@@H](Cc1cc(F)cc(F)c1)c1ncccc1-c1ccc(F)c(C(N)=O)c1
Unit Of Measurement: nM
CC50 at 5 days: 43200

Compound: COc1ccc(-c2cccnc2[C@H](Cc2cc(F)cc(F)c2)NC(=O)Cc2c[nH]c3ccc(O)cc23)cc1 [Example 13G]
Unit Of Measurement: nM
CC50 at 5 days: 25600

Compound: CCC(C(=O)N[C@@H](Cc1cc(F)cc(F)c1)c1ncccc1-c1ccc(F)c(C(N)=O)c1)n1cc(C(F)(F)F)cn1 (single isomer, unassigned)
Unit Of Measurement: nM
CC50 at 5 days: 37600

* * *

Entries and their measured CC50 at 5 days follow.
Procedure Text: in vitro
Applied Conditions: human, uninfected MT-4 cells, CC50 (nM), same protocol as Test A, CellTiter-Glo

Compound: NC(=O)c1cc(-c2cccnc2[C@H](Cc2cc(F)cc(F)c2)NC(=O)Cn2nc(C(F)(F)F)c3c2CCC(F)(F)C3)ccc1F
Comparator: =
CC50 at 5 days, nM: 18400
--
Compound: O=C(Cc1c[nH]c2ccc(F)cc12)N[C@@H](Cc1cc(F)cc(F)c1)c1ncccc1-c1ccc(Cl)cc1Cl
Comparator: =
CC50 at 5 days, nM: 7890
--
Compound: NC(=O)c1cc(-c2cccnc2[C@H](Cc2cc(F)cc(F)c2)NC(=O)Cn2nc(C(F)F)c3c2CC(F)(F)C3)ccc1F [Example 241D]
Comparator: =
CC50 at 5 days, nM: 25400
--
Compound: Cc1ccccc1-c1cccnc1[C@@H](Cc1ccccc1)NC(=O)Cc1c[nH]c2ccc(O)cc12
Comparator: =
CC50 at 5 days, nM: 28200
--
Compound: O=C(Cn1nc(C(F)F)c2c1C(F)(F)C1CC21)N[C@@H](Cc1cc(F)cc(F)c1)c1ncccc1-c1ccc(NC(=O)NC2CC2)cc1 (stereo partly shown)
Comparator: >
CC50 at 5 days, nM: 53200
--
Compound: COc1ccc(-c2cccnc2[C@H](Cc2ccccc2)NC(=O)Cc2c[nH]c3ccc(O)cc23)cc1
Comparator: =
CC50 at 5 days, nM: 48300
--
Compound: NC(=O)c1cc(-c2cccnc2[C@H](Cc2cc(F)cc(F)c2)NC(=O)Cn2nc(C(F)F)cc2C2CC2)ccc1F
Comparator: >
CC50 at 5 days, nM: 47600

* * *

Procedure Text: in vitro
Applied Conditions: human, uninfected MT-4 cells, CC50 (nM), same protocol as Test A, CellTiter-Glo
Description: For the antiviral assay, 40 μL of 1× test concentration of 3-fold serially diluted compound in culture medium with 10% FBS was added to each well of a 384-well plate (10 concentrations) in quadruplicate. […] Cell lysis was carried out by incubating at room temperature for 10 min and then chemiluminescence was read. […] Compound cytotoxicity and the corresponding CC50 values was determined using the same protocol as described in the antiviral assay (Test A) except that uninfected cells were used.
Measurement Label: CC50 at 5 days (nM)

Compound: O=C(Cn1nc(C(F)(F)F)c2c1CCCC2)N[C@@H](Cc1cc(F)cc(F)c1)c1ncccc1-c1ccc(S(=O)(=O)N2CCOCC2)cc1
Reported Value: 9080
//
Compound: Cc1cc2ncn(CC(=O)N[C@@H](Cc3cc(F)cc(F)c3)c3ncccc3-c3ccc(F)c(C(N)=O)c3)c2cc1C
Reported Value: 10300
//
Compound: Cc1nn(CC(=O)N[C@@H](Cc2cc(F)cc(F)c2)c2ncccc2-c2cccc(C(N)=O)c2)c2cc(O)ccc12 [Example 306C]
Reported Value: 41600
